Values were extracted from PubChem BioAssay (NCI).

Tested on: PC-3 prostate
Assay: NCI tumour cell line growth inhibition, 48 h
TGI reference
Measure Name: TGI

[[record]]
compound = "CCOC(=O)c1ccc(Nc2nc3ccccc3nc2-c2cccs2)cc1"
test_result = "> 100 µM"

[[record]]
compound = "O=C(O)CSc1ccccc1C(=O)O"
test_result = "> 100 µM"

[[record]]
compound = "Cc1cn2c(/C=C3/C(=O)Nc4c3ccc3ccccc43)c(C(F)(F)F)nc2s1"
test_result = "> 100 µM"

[[record]]
compound = "COc1ccc(C2C3=C(N=C4SC(C(C)=O)=C(C)N42)c2ccccc2CC3)cc1 (stereo not drawn)"
test_result = "> 100 µM"

[[record]]
compound = "COC(C)(C)[C@@H](O)[C@H](O)C[C@H](C)C1=C2CC[C@@H]3[C@@]4(C)CC[C@@H](OC(C)=O)C(C)(C)[C@@H]4C[C@@H](OC4OC(COC(C)=O)C(O)C(O)C4O)[C@@]3(C)[C@]2(C)CC1 (stereo partly drawn)"
test_result = "18.5 µM"

[[record]]
compound = "CN(Cc1cnc2nc(N)nc(N)c2n1)c1ccc(C(=O)NC23CC4CC(CC(C4)C2)C3)cc1"
test_result = "19 µM"

[[record]]
compound = "Cc1c(CNc2ccc(C(=O)NC(CCCNC(=O)c3ccccc3C(=O)O)C(=O)O)cc2)cnc2nc(N)nc(N)c12 (stereo not drawn)"
test_result = "> 100 µM"

[[record]]
compound = "CCCC[C@@H](C)/C=C1\\CN2CCC[C@H]2[C@@](C)(OCc2ccccc2)[C@@H]1O"
test_result = "> 50 µM"


====

System: A498 renal
Assay: NCI tumour cell line growth inhibition, 48 h; in the data active means GI50 below about 0.43 µM; inactive means the rest
Possible outcomes: active, inactive

[[record]]
compound = "CCC(=O)N1C/C(=C/c2ccc(Cl)cc2)C(=O)/C(=C/c2ccc(Cl)cc2)C1"
classification = "inactive"

[[record]]
compound = "CCCCC(SC(=S)N1CCCC1)C(=O)Nc1nc(CC(=O)OCC)cs1 (centres undefined)"
classification = "inactive"

[[record]]
compound = "NC(=N\\N=C/c1ccc(O)cc1)/C(N)=N\\N=C/c1ccc(O)cc1"
classification = "inactive"

[[record]]
compound = "Cc1cn2c(/C=C3/C(=O)Nc4c3ccc3ccccc43)c(C(F)(F)F)nc2s1"
classification = "inactive"

[[record]]
compound = "O=c1c2cc(C(F)(F)F)ccc2sc2c(NCCCNCCO)nc3ccccc3c12"
classification = "inactive"

[[record]]
compound = "Cc1c(CNc2ccc(C(=O)NC(CCCNC(=O)c3ccccc3C(=O)O)C(=O)O)cc2)cnc2nc(N)nc(N)c12 (centres undefined)"
classification = "inactive"

[[record]]
compound = "C[C@H](c1ccc(Cl)cc1[N+](=O)[O-])N1C(=O)c2cc(I)ccc2N=C(OCCCN2CCN(C)CC2)[C@@H]1c1ccc(Cl)cc1"
classification = "inactive"

[[record]]
compound = "O=[N+]([O-])c1cc[n+]([O-])c2ccccc12"
classification = "active"

[[record]]
compound = "[2H]C([2H])([2H])NC(=O)c1nnc(NC(=O)C2CC2)cc1Nc1cccc(-c2ncn(C)n2)c1OC"
classification = "inactive"


====

Tested on: SNB-75 CNS
Test: NCI tumour cell line growth inhibition, 48 h; in the data active means GI50 below about 0.43 µM; inactive means the rest
Outcome codes: 1 (active), 0 (inactive)

[[record]]
compound = "Nc1nc(Cl)cc(OCC2(CO)CCC2)n1"
tested_system = "SNB-75 CNS"
classification = 0

[[record]]
compound = "Cc1ccc2nc3ccccc3c(NCc3ccc(Cl)cc3)c2c1"
tested_system = "SNB-75 CNS"
classification = 0

[[record]]
compound = "C#C[C@]1(O)CC[C@H]2[C@@H]3CC=C4c5sc(Nc6cc(F)ccc6F)nc5CC[C@]4(C)[C@H]3CC[C@@]21C"
tested_system = "SNB-75 CNS"
classification = 0

[[record]]
compound = "O=c1c2cc(C(F)(F)F)ccc2sc2c(NCCCNCCO)nc3ccccc3c12"
tested_system = "SNB-75 CNS"
classification = 0

[[record]]
compound = "C[C@H](c1ccc(Cl)cc1[N+](=O)[O-])N1C(=O)c2cc(I)ccc2N=C(OCCCN2CCN(C)CC2)[C@@H]1c1ccc(Cl)cc1"
tested_system = "SNB-75 CNS"
classification = 0

[[record]]
compound = "CCOc1ccc2c(-c3ccnc(Nc4cc(OC)cc(C(F)(F)F)c4)n3)cnn2n1"
tested_system = "SNB-75 CNS"
classification = 0

[[record]]
compound = "CN(C)c1ccc(Nc2c3ccccc3nc3ccccc23)cc1"
tested_system = "SNB-75 CNS"
classification = 0

[[record]]
compound = "CCCCC(SC(=S)N1CCCC1)C(=O)Nc1nc(CC(=O)OCC)cs1 (stereo unspecified)"
tested_system = "SNB-75 CNS"
classification = 0

[[record]]
compound = "Oc1c(C(Nc2ccccc2Br)c2ccccc2)ccc2cccnc12 (stereo unspecified)"
tested_system = "SNB-75 CNS"
classification = 0

[[record]]
compound = "C/C(=C\\c1ccn(-c2ccccc2N)n1)[C@@H]1C[C@@H]2O[C@]2(C)CCC[C@H](C)[C@H](O)[C@@H](C)C(=O)C(C)(C)[C@@H](O)CC(=O)O1"
tested_system = "SNB-75 CNS"
classification = 1

[[record]]
compound = "Nc1ccn(C2CC(F)C(CO)O2)c(=O)n1 (stereo unspecified)"
tested_system = "SNB-75 CNS"
classification = 0


====

System: ACHN renal
Assay: NCI tumour cell line growth inhibition, 48 h
Measure Name: TGI

[[record]]
compound = "COC(=O)[C@H](Cc1c[nH]c2ccccc12)NP(=O)(OCCC#N)OCC1OC(n2cc(C)c(=O)[nH]c2=O)CC1N=[N+]=[N-] (stereo not given in full)"
measure_name = "TGI"
test_result = "> 100 µM"

[[record]]
compound = "COc1cc(-c2nc3ccccc3s2)ccc1OCCCCOc1cc2c(cc1OC)C(=O)N1CCC[C@H]1C=N2"
measure_name = "TGI"
test_result = "5.8 µM"

[[record]]
compound = "Cc1cc(-n2nnc(C(=O)O)c2-c2ccccc2)c2ccc(Cl)cc2n1"
measure_name = "TGI"
test_result = "> 100 µM"

[[record]]
compound = "O=C(NNC(=S)Nc1ccccc1)c1nsc2ccccc12"
measure_name = "TGI"
test_result = "> 100 µM"

[[record]]
compound = "CCCC[C@@H](C)/C=C1\\CN2CCC[C@H]2[C@@](C)(OCc2ccccc2)[C@@H]1O"
measure_name = "TGI"
test_result = "> 50 µM"

[[record]]
compound = "COc1cc2c(cc1OC)-c1ncc3c(OC)ccc(OC)c3c1C2"
measure_name = "TGI"
test_result = "> 100 µM"

[[record]]
compound = "COc1ccc2c(c1)[n+](=O)c(C(=O)c1cccs1)c(C(F)(F)F)n2[O-]"
measure_name = "TGI"
test_result = "> 50 µM"

[[record]]
compound = "C#C[C@]1(O)CC[C@H]2[C@@H]3CC=C4c5sc(Nc6cc(F)ccc6F)nc5CC[C@]4(C)[C@H]3CC[C@@]21C"
measure_name = "TGI"
test_result = "2.9 µM"

[[record]]
compound = "Fc1cccc(F)c1C1SCc2nc3cc(Cl)c(Cl)cc3n21 (stereo not given)"
measure_name = "TGI"
test_result = "> 100 µM"

[[record]]
compound = "C=CO/N=[N+](\\[O-])N(CC)CC"
measure_name = "TGI"
test_result = "> 100 µM"

[[record]]
compound = "O=C1C2C(C(=O)N1c1ccccc1)C1c3ccccc3C2C2C(=O)N(c3ccccc3)C(=O)C21 (stereo not given)"
measure_name = "TGI"
test_result = "> 100 µM"

[[record]]
compound = "N#C/C(=C/C=C/c1ccco1)C(N)=O"
measure_name = "TGI"
test_result = "> 10 µM"

[[record]]
compound = "O=C(O)CCC(=O)OCN1C(=O)C2C3C=CC(C2C1=O)C1C2C(=O)N(COC(=O)CCC(=O)O)C(=O)C2C31 (stereo not given)"
measure_name = "TGI"
test_result = "> 100 µM"

[[record]]
compound = "COC1C(OC(=O)c2ccc(C)[nH]2)C(O)C(Oc2ccc3c(O)c(NC(=O)c4c[nH]c(C(=O)Nc5c(O)c6ccc(OC7OC(C)(C)C(OC)C(OC(=O)c8ccc(C)[nH]8)C7O)c(C)c6oc5=O)c4C)c(=O)oc3c2C)OC1(C)C (stereo not given)"
measure_name = "TGI"
test_result = "9.43 µM"

[[record]]
compound = "C=CC(=O)N1C/C(=C\\c2ccc(Cl)c(Cl)c2)C(=O)/C(=C/c2ccc(Cl)c(Cl)c2)C1"
measure_name = "TGI"
test_result = "0.343 µM"


====

Test system: OVCAR-5 ovarian
Assay: NCI tumour cell line growth inhibition, 48 h
*1 amine or outer side, *2 acyl side, *3 side chain or, on linkers, in order; H or OH if unused. Where a SMILES comes first, the peptide text is derived from it. Bridges are numbered along the chain shown (N, C = ends). Roman numbers before positions name the chains, in order. [ ]: non-standard residue; d: D form. Actinocin(9to1) = Cc1c2oc3c(C)ccc(C(=O)[*:1])c3nc-2c(C(=O)[*:2])c(N)c1=O; NMeH = CN[CH](Cc1c[nH]cn1)C(=O)O; Sar = CNCC(=O)O
Measure Name: TGI

[[record]]
compound = "COc1ccc(C2C3=C(N=C4SC(C(C)=O)=C(C)N42)c2ccccc2CC3)cc1 (stereo not given)"
tested_system = "OVCAR-5 ovarian"
measure_name = "TGI"
test_result = "> 100 µM"

[[record]]
compound = "COC1C(OC(=O)c2ccc(C)[nH]2)C(O)C(Oc2ccc3c(O)c(NC(=O)c4c[nH]c(C(=O)Nc5c(O)c6ccc(OC7OC(C)(C)C(OC)C(OC(=O)c8ccc(C)[nH]8)C7O)c(C)c6oc5=O)c4C)c(=O)oc3c2C)OC1(C)C (stereo not given)"
tested_system = "OVCAR-5 ovarian"
measure_name = "TGI"
test_result = "9.96 µM"

[[record]]
compound = "COC(=O)C1=C(OC(=O)/C(=C/c2ccccc2)c2ccc(OC)cc2)C(C(=O)OC)[C@@]2(O)[C@@H](C(=O)OC)[C@H](C)C[C@@H]1[C@@H]2C(=O)OC (stereo not given in full)"
tested_system = "OVCAR-5 ovarian"
measure_name = "TGI"
test_result = "> 100 µM"

[[record]]
compound = "COc1cc(/C=C2\\CC/C(=C\\c3cc(OC)c(O)c(OC)c3)C2=O)cc(OC)c1O"
tested_system = "OVCAR-5 ovarian"
measure_name = "TGI"
test_result = "> 100 µM"

[[record]]
compound = "C=CCn1c(=S)sc2c(C(=O)OCC)c3c(C)cc(C)cn3c2c1=O"
tested_system = "OVCAR-5 ovarian"
measure_name = "TGI"
test_result = "> 100 µM"

[[record]]
compound = "Cc1cc2c(c(C(N)=O)c1C)-c1cccc(F)c1C2=O"
tested_system = "OVCAR-5 ovarian"
measure_name = "TGI"
test_result = "> 100 µM"

[[record]]
compound = "CCCn1c(SCCSc2c3ccccc3c(-c3nc(F)nc(F)n3)n2CCC)c2ccccc2c1-c1nc(F)nc(F)n1"
tested_system = "OVCAR-5 ovarian"
measure_name = "TGI"
test_result = "> 100 µM"

[[record]]
compound = "N#C/C(=C/C=C/c1ccco1)C(N)=O"
tested_system = "OVCAR-5 ovarian"
measure_name = "TGI"
test_result = "> 10 µM"

[[record]]
compound = "c1nc(NCCc2cnc[nH]2)c2[nH]cnc2n1"
tested_system = "OVCAR-5 ovarian"
measure_name = "TGI"
test_result = "> 100 µM"

[[record]]
compound = "Cc1c2oc3c(C)ccc(C(=O)NC4C(=O)NC(C(C)C)C(=O)N5CCCC5C(=O)N(C)CC(=O)N(C)C(Cc5cnc[nH]5)C(=O)OC4C)c3nc-2c(C(=O)NC2C(=O)NC(C(C)C)C(=O)N3CCCC3C(=O)N(C)CC(=O)N(C)C(Cc3cnc[nH]3)C(=O)OC2C)c(N)c1=O (stereo not given) (I: TVP[Sar][NMeH] / II: TVP[Sar][NMeH]; ester I:1-I:C, II:1-II:C; linker I:N-II:N via Actinocin(9to1); configuration not given here)"
tested_system = "OVCAR-5 ovarian"
measure_name = "TGI"
test_result = "> 100 µM"

[[record]]
compound = "C#C[C@]1(O)CC[C@H]2[C@@H]3CCC4=C/C(=N/NC(=O)c5cccc6c(=O)c7ccccc7[nH]c56)CCC4[C@H]3CC[C@@]21C (stereo not given in full)"
tested_system = "OVCAR-5 ovarian"
measure_name = "TGI"
test_result = "> 100 µM"

[[record]]
compound = "COc1cc2cc(C(=O)N3CC(COS(C)(=O)=O)c4ccc(NC(=O)OCc5ccccc5)cc43)[nH]c2c(OC)c1OC (stereo not given)"
tested_system = "OVCAR-5 ovarian"
measure_name = "TGI"
test_result = "> 100 µM"

[[record]]
compound = "CC(C)N(C(=O)c1cccc(C(=O)N(C(C)C)C(C)C)c1)C(C)C"
tested_system = "OVCAR-5 ovarian"
measure_name = "TGI"
test_result = "> 100 µM"

[[record]]
compound = "Cn1cnc(N)c(N=O)c1=O"
tested_system = "OVCAR-5 ovarian"
measure_name = "TGI"
test_result = "> 10 µM"

[[record]]
compound = "Cc1ccc(S(=O)(=O)Oc2ccc3c4c(c(=O)oc3c2)CCCCCC4)cc1"
tested_system = "OVCAR-5 ovarian"
measure_name = "TGI"
test_result = "> 100 µM"

